The compounds listed here are annotated with their Ki.
molecular target: isolated recombinant JAK2 kinase domain (Homo sapiens (Human), UniProt O60674); assay: JAK2 enzyme assay (Caliper LabChip, Ki)
Sequence (O60674 849-1124): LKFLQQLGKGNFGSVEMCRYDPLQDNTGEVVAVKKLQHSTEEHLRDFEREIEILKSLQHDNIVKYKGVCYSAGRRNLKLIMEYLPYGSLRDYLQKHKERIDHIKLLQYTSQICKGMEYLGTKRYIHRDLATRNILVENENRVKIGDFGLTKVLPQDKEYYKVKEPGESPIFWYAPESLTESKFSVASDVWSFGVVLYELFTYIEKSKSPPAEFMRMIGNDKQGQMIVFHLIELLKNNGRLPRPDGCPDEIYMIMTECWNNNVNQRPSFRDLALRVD
Give the value, in units of nM, as a plain number.

The recorded Ki for entry N#CCC1(n2cc(C(N)=O)c(NC(=O)C3CC3)n2)CCN(Cc2cccc(C(F)(F)F)c2)CC1 [Example 62] equals 285

The recorded Ki for entry N#CCC1(n2cc(C(N)=O)c(NC(=O)C3CC3)n2)CCN(Cc2ccc(OC(F)(F)F)cc2)CC1 [Example 49] equals 190

The recorded Ki for entry N#CCC1(n2cc(C(N)=O)c(NC(=O)C3CC3C#N)n2)CCN(Cc2ccc(-c3ccccc3)nc2F)CC1F (stereo not shown) [Example 227] equals 0.63

The recorded Ki for entry N#CC[C@]1(n2cc(C(N)=O)c(NC(=O)C3CC3)n2)CC[C@@H](NCc2ccc(Cl)cc2)CC1 [Example 120] equals 115

The recorded Ki for entry COC(=O)Nc1nn(C2(CC#N)CCN(Cc3ccc(-n4ncc(C)n4)cc3)CC2F)cc1C(N)=O (stereo not shown) [Example 267] equals 0.84
